Lab note: log10 IC50 readings collected with Cyclin-dependent kinase 5 activator 1 [99-307] (Homo sapiens) for the following compounds.
Sequence (Q15078 99-307): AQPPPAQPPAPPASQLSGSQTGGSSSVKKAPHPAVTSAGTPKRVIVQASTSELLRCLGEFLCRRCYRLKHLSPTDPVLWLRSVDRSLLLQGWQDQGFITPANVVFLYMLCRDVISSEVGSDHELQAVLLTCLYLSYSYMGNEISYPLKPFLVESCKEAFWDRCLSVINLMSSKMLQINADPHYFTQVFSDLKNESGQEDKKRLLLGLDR
Sequence (Q00535 whole entry): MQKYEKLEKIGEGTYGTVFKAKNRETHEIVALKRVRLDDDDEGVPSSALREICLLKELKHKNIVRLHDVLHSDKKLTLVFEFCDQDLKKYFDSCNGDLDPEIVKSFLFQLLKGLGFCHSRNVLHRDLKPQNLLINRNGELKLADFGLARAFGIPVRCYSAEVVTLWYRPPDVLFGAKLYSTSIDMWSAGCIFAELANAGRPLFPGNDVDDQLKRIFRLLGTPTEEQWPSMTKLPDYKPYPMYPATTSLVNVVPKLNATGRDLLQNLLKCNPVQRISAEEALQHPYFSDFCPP
Hi team, quick reminder: these entries are log10 of IC50 (nM).

1. C=Cc1ccc2c(c1)NC(=O)C2=C1Nc2ccccc2C1=NOC(C)=O
2.60
2. O=Nc1c(C2C(=O)Nc3cc(Cl)ccc32)[nH]c2ccccc12 (stereo unspecified)
2.00
3. CC(=O)ON=C1C(=C2C(=O)Nc3cc(F)ccc32)Nc2ccccc21
2.48
4. CO/N=C1/C(=C2/C(=O)Nc3cc(Br)ccc32)Nc2ccccc21
3.34
5. Cc1cc2c(cc1Br)NC(=O)/C2=C1\Nc2ccccc2C1=O
4.78

Q: Fill in: log10 IC50 of O=Nc1c(C2C(=O)Nc3cc(F)ccc32)[nH]c2ccccc12 (stereo unspecified) is ___
Ans: 2.18
